Test system: intestinal absorbtion of CHOLESTEROL
run_description: Intestinal absorption of cholesterol: appearance of 4-14C-cholesterol in thoracic duct lymph
Type: in vivo, female albino rats (Charles River)
conditions: 0-8 hours after emulsion; 100 mg orally; vs Na-TC control; 14C-cholesterol in lymph
quantity_name: % decrease of cholesterol, 0-8 hours (%)
Report as a plain number; the unit % is understood.

Check out these entries, answers already filled in.
C[C@H](CC(=O)O)[C@H]1CC[C@H]2[C@@H]3CC[C@@H]4C[C@H](O)CC[C@]4(C)[C@H]3C[C@H](O)[C@]12C [Compound C, 3α, 12α-dihydroxy-5-β-norcholanic acid]; 40
C[C@H](C(=O)O)[C@H]1CC[C@H]2[C@@H]3CC[C@@H]4C[C@H](O)CC[C@]4(C)[C@H]3C[C@H](O)[C@]12C [Compound B]; 0
C[C@H](CCO)[C@H]1CC[C@H]2[C@@H]3CC[C@@H]4C[C@H](O)CC[C@]4(C)[C@H]3C[C@H](O)[C@]12C [Compound D, 3α, 12α, 23-trihydroxy-5β-24-norcholane]; 84

Moving on to another compound below.
query: # get_value(readout= % decrease of cholesterol, 0-8 hours, system= intestinal absorbtion of CHOLESTEROL) for C[C@]12CC[C@@H](O)C[C@H]1CC[C@@H]1[C@@H]2C[C@H](O)[C@]2(C)[C@@H](C(=O)O)CC[C@@H]12 [Compound A]
result: 0

###

Tested on: bile flow
run_description: Stimulation of bile flow (Example 1)
Type: in vivo, female albino rats (Charles River)
conditions: 9-24 hours; 100 mg orally; over the Na-TC control
Listing of entries alongside the reported % increase of Bile Flow, 9-24 hours.

C[C@H](CC(=O)O)[C@H]1CC[C@H]2[C@@H]3CC[C@@H]4C[C@H](O)CC[C@]4(C)[C@H]3C[C@H](O)[C@]12C [Compound C, 3α, 12α-dihydroxy-5-β-norcholanic acid]; +30%
C[C@H](CCO)[C@H]1CC[C@H]2[C@@H]3CC[C@@H]4C[C@H](O)CC[C@]4(C)[C@H]3C[C@H](O)[C@]12C [Compound D, 3α, 12α, 23-trihydroxy-5β-24-norcholane]; +14%
C[C@H](C(=O)O)[C@H]1CC[C@H]2[C@@H]3CC[C@@H]4C[C@H](O)CC[C@]4(C)[C@H]3C[C@H](O)[C@]12C; +47%

// below: % increase of Bile Flow, 9-24 hours requested for another compound
query: Name the recorded % increase of Bile Flow, 9-24 hours for "C[C@]12CC[C@@H](O)C[C@H]1CC[C@@H]1[C@@H]2C[C@H](O)[C@]2(C)[C@@H](C(=O)O)CC[C@@H]12" .
result: -3%
